target: Sodium-dependent serotonin transporter (Homo sapiens, UniProt P31645); test: Inhibition of [3H]-serotonin uptake in human SERT expressed in HEK293 cells by scintillation counting
Sequence (P31645 whole entry): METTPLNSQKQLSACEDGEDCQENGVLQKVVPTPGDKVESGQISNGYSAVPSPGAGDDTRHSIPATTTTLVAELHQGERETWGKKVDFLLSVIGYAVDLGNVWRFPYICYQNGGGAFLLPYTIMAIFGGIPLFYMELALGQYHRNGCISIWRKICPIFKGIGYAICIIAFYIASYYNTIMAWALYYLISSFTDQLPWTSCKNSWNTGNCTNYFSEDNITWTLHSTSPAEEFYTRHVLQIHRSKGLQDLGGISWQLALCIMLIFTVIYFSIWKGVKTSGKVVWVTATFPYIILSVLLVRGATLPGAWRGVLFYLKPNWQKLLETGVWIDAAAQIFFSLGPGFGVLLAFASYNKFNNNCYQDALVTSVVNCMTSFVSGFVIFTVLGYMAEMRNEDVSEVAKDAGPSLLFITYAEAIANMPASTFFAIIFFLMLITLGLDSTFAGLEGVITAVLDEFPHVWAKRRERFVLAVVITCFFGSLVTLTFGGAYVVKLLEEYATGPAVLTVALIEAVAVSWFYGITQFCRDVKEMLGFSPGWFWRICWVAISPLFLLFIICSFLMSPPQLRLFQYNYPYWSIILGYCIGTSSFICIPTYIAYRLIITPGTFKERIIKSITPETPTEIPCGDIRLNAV
pIC50: −log10 of the molar value.
quantity: pIC50

compound	pIC50
CN(C)CCC(c1ccc(Cl)c(Cl)c1)N1CCOCC1 (configuration not stated)	6.42
COc1ccc2cc(C(CCN(C)C)N3CCCC3)ccc2c1Cl (configuration not stated)	6.47

[P] C1=C(Cc2ccccc2)CCN(CCC(c2csc3ccccc23)N2CCCC2)C1 (configuration not stated)
[Q] CN(C)CCC(c1csc2ccccc12)N1CCOCC1 (configuration not stated)
Query block: Higher pIC50: P or Q ? // return label of chosen record
Result block: P
(P: 6.21, Q: 5.93)

[a] CN(C)CCC(c1cc2ccccc2s1)N1CCCC1 (configuration not stated)
[b] C1=C(Cc2ccccc2)CCN(CCC(c2csc3ccccc23)N2CCCCC2)C1 (configuration not stated)
Query block: Name the one with the greater pIC50 value, either a or b as given. Give the label under which the chosen entry appears.
Result block: a
(a: 6.40, b: 6.04)

---

test: Mean residence time in Sprague-Dawley rat at 0.5 mg/kg, iv; format: ADME, organism-based; design: dose 0.5 mg/kg, route intravenous; conditions: in vivo
quantity: MRT (h)
Give the value in h but do not write h after it.

Query block: // query MRT value for entry CN(C)CCC(c1ccc(Cl)c(Cl)c1)N1CCOCC1 (stereo unspecified)
Result block: 1.06

---

assay: Acute toxicity in KM mouse assessed as survival at 900 mg/kg, po up to 14 days (reference value: 100%); assay type: organism-based; design: dose 900 mg/kg, route oral; settings: in vivo
quantity: survival at 336 h (%)
// note: answer is a bare numeric in %

Query block: Value lookup for survival at 336 h; key = CN(C)CCC(c1ccc(Cl)c(Cl)c1)N1CCOCC1 (stereo unspecified)
Result block: 40

---

assay: Drug uptake in Sprague-Dawley rat plasma at 0.5 mg/kg iv after 4 hrs; format: ADME, organism-based; set-up: dose 0.5 mg/kg, route intravenous
quantity: concentration at 4 h (ng/mL)
Give your result in ng/mL as a bare value.

Query block: Entry CN(C)CCC(c1ccc(Cl)c(Cl)c1)N1CCOCC1 (stereo unspecified) has what concentration at 4 h?
Result block: 3.7

---

molecular target: Sodium-dependent noradrenaline transporter (Homo sapiens, UniProt P23975); assay: Inhibition of [3H]-NE uptake in human norepinephrine transporter expressed in HEK293 cells by scintillation counting
Sequence (P23975 whole entry): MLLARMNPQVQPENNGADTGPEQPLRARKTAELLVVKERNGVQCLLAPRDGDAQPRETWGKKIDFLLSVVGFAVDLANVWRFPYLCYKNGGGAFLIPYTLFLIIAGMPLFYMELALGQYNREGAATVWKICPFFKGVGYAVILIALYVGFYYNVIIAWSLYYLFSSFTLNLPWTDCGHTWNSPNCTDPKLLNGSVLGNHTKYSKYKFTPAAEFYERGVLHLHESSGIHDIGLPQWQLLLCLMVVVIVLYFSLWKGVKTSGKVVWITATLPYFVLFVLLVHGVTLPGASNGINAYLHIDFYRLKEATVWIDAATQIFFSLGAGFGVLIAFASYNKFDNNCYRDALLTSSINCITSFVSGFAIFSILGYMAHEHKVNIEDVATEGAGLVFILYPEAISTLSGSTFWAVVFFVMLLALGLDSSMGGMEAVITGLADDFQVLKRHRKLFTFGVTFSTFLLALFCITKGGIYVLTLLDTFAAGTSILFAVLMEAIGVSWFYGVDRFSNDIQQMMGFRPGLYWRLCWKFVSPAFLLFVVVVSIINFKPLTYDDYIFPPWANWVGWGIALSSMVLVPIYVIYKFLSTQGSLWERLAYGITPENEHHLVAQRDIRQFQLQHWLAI
pIC50: −log10 of the molar value.
quantity: pIC50

Illustrative cases are given below, each with its answer.
compound	pIC50
CN(C)CCC(c1ccc(Cl)c(Cl)c1)N1CCCCC1 (stereo not given)	6.20
COc1ccc2cc(C(CCN(C)C)N3CCCC3)ccc2c1Cl (stereo not given)	6.43
C1=C(Cc2ccccc2)CCN(CCC(c2csc3ccccc23)N2CCNCC2)C1 (stereo not given)	6.20
CN(C)CCC(c1ccc(Cl)c(Cl)c1)N1CCOCC1 (stereo not given)	6.32

[P] C1=C(Cc2ccccc2)CCN(CCC(c2csc3ccccc23)N2CCCC2)C1 (stereo not given)
[Q] CN(C)CCC(c1ccc(Cl)c(Cl)c1)N1CCNCC1 (stereo not given)
Query block: Between these two entries, P and Q , state which has the higher pIC50. Mark your selection by writing its label.
Result block: P
(P: 6.80, Q: 6.37)

[a] CN(C)CCC(c1csc2ccccc12)N1CCOCC1 (stereo not given)
[b] Clc1ccc(C(CCN2CC=C(Cc3ccccc3)CC2)N2CCCC2)cc1Cl (stereo not given)
Query block: I would appreciate it if you could say which entry, a or b , has the lower pIC50 value. Please reply using the label of the selected record.
Result block: a

[a] CN(C)CCC(c1ccc(Cl)c(Cl)c1)N1CCCC1 (stereo not given)
[b] CN(C)CCC(c1cc2ccccc2s1)N1CCCC1 (stereo not given)
[c] CN(C)CCC(c1cc2ccccc2s1)N1CCOCC1 (stereo not given)
Query block: # rank_down: sort by pIC50, max first Output the labels ranked as instructed.
Result block: a, b, c

[1] CN(C)CCC(c1csc2ccccc12)N1CCCC1 (stereo not given)
[2] CCN(CC)CCC(c1ccc(Cl)c(Cl)c1)N1CCCC1 (stereo not given)
Query block: Hi, I'm comparing two records. Which one has the lower pIC50, 1 or 2 ? Lab note: record the label of whichever item you select.
Result block: 1
